TEST_DESCRIPTION: in vitro
PROPERTY_LABEL: viability at 1 h, 0.25 % (w/v) (%)

# COMPOUND, MEASURE_UNIT, REPORTED_VALUE
measured = [
    ("O=C(O)CC(O)(CC(=O)O)C(=O)O [Citric acid, citric acid]", "%", 51),
]

###

TEST_DESCRIPTION: in vitro

# COMPOUND, MEASURE_UNIT, viability at 24 h, 0.25 % (w/v)
rows = [
    ("O=C(O)CC(O)(CC(=O)O)C(=O)O [Citric acid, citric acid]", "%", 21),
]
